- TARGET: GST-CIB1 : F-scrambled peptide (Homo sapiens, UniProt Q99828)
- Construct: made in house; host or cells: BL-21 plus RIL cells (E. coli)
- Sequence (Q99828 whole entry): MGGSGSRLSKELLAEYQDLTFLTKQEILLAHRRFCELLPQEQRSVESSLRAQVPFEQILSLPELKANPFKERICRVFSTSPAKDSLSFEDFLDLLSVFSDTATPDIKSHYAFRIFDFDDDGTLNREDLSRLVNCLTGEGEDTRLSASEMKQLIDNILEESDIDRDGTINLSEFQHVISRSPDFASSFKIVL
- EXPERIMENT NOTES: FP scrambled-peptide counter screen, 1536-well format
- Type: binding
- MEASUREMENT SETUP: Table S3, counterscreen; negative = inhibition
Efficacy (%) (counterscreen) values for the molecules below.
I'd appreciate it if you wrote the number followed by its unit.

Worked cases, answers included:
CS(=O)(=O)c1ccc(C(=O)OCC(=O)N2CCN(CCC3CCCCC3)CC2)cc1[N+](=O)[O-].O=C(O)C(F)(F)F    -50%
COc1cccc(CN(C)c2ccc(S(=O)(=O)Nc3nccs3)cc2)c1O.O=C(O)C(F)(F)F    -33%
CCCCNC(=S)N/N=C1\C(=O)Nc2ccccc21.O=C(O)C(F)(F)F    -50%
Cc1ccc([N+](=O)[O-])[c]2c1[O][Hg]2    111%
COc1ccccc1Nc1ccc2c(O)cc(S(=O)(=O)O)cc2c1.O=C(O)C(F)(F)F    -89%

Ask: Could you share what Efficacy (%) (counterscreen) was measured for COc1c(O)cccc1[C@H](O)C1CCN(CCc2ccc(F)cc2)CC1 , tested on GST-CIB1 : F-scrambled peptide (Homo sapiens, UniProt Q99828)?
Reply: -83%

Ask: Could you share what Efficacy (%) (counterscreen) was measured for O=C(O)C(F)(F)F.O=S(=O)(Nc1nccs1)c1ccc(Nc2nc(-c3ccccc3)cs2)cc1 , tested on GST-CIB1 : F-scrambled peptide (Homo sapiens, UniProt Q99828)?
Reply: -81%

Ask: Could you share what Efficacy (%) (counterscreen) was measured for Nc1cccc2c1C(=O)N(C1CCC(=O)NC1=O)C2=O (centres unmarked) , tested on GST-CIB1 : F-scrambled peptide (Homo sapiens, UniProt Q99828)?
Reply: -91%
